For each of the binders below, state its Relative Inhibition of IL-4 induced TF-1 Proliferation IC50.
- system: T1, hIL-4Rα on cells (human, UniProt P24394 26-825)
- T1 sequence: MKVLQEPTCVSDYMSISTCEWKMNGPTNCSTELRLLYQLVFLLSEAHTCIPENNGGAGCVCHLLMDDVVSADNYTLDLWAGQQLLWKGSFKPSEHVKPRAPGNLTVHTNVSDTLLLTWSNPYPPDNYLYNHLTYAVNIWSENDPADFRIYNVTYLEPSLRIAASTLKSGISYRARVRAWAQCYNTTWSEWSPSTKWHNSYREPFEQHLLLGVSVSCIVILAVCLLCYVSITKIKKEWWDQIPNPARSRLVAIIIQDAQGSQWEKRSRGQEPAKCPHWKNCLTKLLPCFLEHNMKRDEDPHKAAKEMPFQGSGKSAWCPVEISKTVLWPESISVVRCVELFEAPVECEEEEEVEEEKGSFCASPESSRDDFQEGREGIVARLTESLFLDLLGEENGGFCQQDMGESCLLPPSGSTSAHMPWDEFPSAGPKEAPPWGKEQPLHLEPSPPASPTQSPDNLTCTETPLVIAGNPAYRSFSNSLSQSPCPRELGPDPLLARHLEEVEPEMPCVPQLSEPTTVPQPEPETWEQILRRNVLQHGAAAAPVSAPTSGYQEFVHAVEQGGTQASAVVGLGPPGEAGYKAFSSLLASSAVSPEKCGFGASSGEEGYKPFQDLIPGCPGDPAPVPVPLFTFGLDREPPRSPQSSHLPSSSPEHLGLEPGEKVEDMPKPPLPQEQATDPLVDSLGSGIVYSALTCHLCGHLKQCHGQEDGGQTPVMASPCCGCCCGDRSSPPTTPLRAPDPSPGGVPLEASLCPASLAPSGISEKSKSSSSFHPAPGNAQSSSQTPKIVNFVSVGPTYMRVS
- assay.info: cell-based or functional assay

Asked: Query (binder): Construct 4 (mAb413) (antibody, IgG4, V domains shown, VH/VL only) VH: EVQLVESGGGLEQPGGSLRLSCAGSGFTFRDFAMTWVRQAPGKGLEWVSSISGSGGNIYYADSVKGRFTISRDNSKNTLYLQMNSLRAEDTAVYYCAKDRLSKTIRPRYYGLDVWGQGTTVTVSS VL: DIVMTQSPLSLPVTPGEPASISCTASQSLLYSIGYNYVDWYLQKSGQSPQLLIYLGNNRATGVPDRFSGSGSGTDFTLKISRVEAEDVGFYYCMQALTTPYTFGQGTKLEIK ; field requested: Relative Inhibition of IL-4 induced TF-1 Proliferation IC50
Given back: 0.442 relative to dupilumab

Asked: What measured Relative Inhibition of IL-4 induced TF-1 Proliferation IC50 goes with Construct 23 (mAb431) (antibody, V domains shown, VH/VL only) VH: EVQLVESGGGLEQPGGSLRLSCAGSGFTFRDFAMTWVRQAPGKGLEWVSSISGGGGSTYYADSVKGRFTISRDNSKNTLYLQMNSLRAEDTAVYYCAKDRLSVTVRPRYYGLDVWGQGTTVTVSS VL: DIVMTQSPLSLPVTPGEPASISCRSSQSVLYSIGKNYVDWYLQKSGQSPQLLIYLGSQRATGVPDRFSGSGSGTDFTLKISRVEAEDVGFYYCMQSLTSPYTFGQGTKLEIK ?
Given back: 0.823 relative to dupilumab

Asked: Report Relative Inhibition of IL-4 induced TF-1 Proliferation IC50 for Construct 15 (mAb423) (antibody, IgG4, V domains shown, VH/VL only) VH: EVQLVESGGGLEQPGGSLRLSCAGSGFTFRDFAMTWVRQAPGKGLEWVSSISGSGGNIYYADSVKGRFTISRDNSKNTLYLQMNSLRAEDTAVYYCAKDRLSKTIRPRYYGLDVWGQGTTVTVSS VL: DIVMTQSPLSLPVTPGEPASISCTASQSLLYSIGYNYVDWYLQKSGQSPQLLIYLGNKRASGVPDRFSGSGSGTDFTLKISRVEAEDVGFYYCMQSLTSPYTFGQGTKLEIK please.
Given back: 0.281 relative to dupilumab
